EXPERIMENTAL TARGET: STK11 CAB39 STRADA (human) (UniProt Q9Y376+Q7RTN6+Q15831)
Sequence (Q15831 whole entry, looked up): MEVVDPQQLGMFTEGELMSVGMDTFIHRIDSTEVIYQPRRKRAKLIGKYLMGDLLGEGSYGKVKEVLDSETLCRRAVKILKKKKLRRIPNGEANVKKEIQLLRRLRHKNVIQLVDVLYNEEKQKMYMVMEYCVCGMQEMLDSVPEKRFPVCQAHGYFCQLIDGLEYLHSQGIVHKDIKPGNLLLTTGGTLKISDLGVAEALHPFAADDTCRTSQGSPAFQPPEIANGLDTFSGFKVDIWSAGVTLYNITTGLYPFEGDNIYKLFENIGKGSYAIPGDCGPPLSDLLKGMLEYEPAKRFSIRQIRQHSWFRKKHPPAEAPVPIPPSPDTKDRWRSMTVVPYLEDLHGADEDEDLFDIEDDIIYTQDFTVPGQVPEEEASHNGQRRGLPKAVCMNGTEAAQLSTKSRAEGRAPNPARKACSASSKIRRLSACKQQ
Sequence (Q7RTN6 whole entry, looked up): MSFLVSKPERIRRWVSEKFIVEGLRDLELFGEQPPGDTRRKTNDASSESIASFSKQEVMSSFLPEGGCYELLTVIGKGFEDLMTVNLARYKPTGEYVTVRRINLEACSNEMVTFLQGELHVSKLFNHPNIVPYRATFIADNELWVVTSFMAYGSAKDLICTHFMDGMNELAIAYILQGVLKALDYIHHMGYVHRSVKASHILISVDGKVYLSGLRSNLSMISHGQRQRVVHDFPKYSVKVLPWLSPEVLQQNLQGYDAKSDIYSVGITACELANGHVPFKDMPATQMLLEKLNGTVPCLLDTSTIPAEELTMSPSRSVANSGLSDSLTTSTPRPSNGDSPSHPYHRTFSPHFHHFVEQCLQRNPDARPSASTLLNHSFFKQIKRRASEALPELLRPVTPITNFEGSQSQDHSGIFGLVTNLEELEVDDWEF
Sequence (Q9Y376 whole entry, looked up): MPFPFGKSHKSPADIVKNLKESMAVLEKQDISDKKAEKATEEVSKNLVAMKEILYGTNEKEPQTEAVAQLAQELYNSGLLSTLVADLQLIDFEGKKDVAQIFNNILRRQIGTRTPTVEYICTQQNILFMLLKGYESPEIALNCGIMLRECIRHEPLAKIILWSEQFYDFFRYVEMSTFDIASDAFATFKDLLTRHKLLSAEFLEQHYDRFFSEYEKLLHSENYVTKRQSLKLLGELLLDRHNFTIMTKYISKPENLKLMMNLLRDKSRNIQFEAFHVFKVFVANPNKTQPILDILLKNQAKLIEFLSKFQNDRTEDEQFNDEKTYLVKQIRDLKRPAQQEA
TEST: radiometric filter-binding kinase assay
ASSAY CONTEXT: compound 10.0 µM
MEASURED QUANTITY: residual activity
Answers without a unit are incomplete; give the number and then its unit.

Record excerpt, results attached:
In [3]: df
Out[3]:
                                   compound  endpoint_value
0            Oc1ccc(/C=C/c2cc(O)cc(O)c2)cc1             69%
1  Cc1ccc(Sc2cnc(Nc3cccc(Br)n3)s2)cc1C(=O)N1CCN(C(=O)CN)CC1              8%
2                           CCCC(CCC)C(=O)O             84%
3  O=C(Nc1ccccc1-c1cn2c(CN3CCNCC3)csc2n1)c1cnc2ccccc2n1             97%
4  FC(F)(F)c1ccc(-c2ccc(Oc3cncc4sc(-c5nn[nH]n5)cc34)cc2)cc1             64%

# return residual activity for each item in the list
1. NC1(c2ccc(-c3nc4ccn5c(=O)[nH]nc5c4cc3-c3ccccc3)cc2)CCC1
2. CCOC(=O)c1ccc(N2NC(=O)/C(=C/c3ccc([N+](=O)[O-])o3)C2=O)cc1
3. NC(=O)c1cc(-c2ccnc(NC3CCCCC3)c2)nc(N2CCNCC2)c1
4. NC(=O)c1c(NC(=O)C2CC2)sc2c1CCCC2
5. CCCCCc1ccc(/C=C/[C@H](O)[C@@H](CO)NC)cc1
6. NC(=O)c1ccc(-c2ccc(Oc3cncc4sc(-c5nn[nH]n5)cc34)cc2)cc1
7. CNc1nc(-c2ccc3c(N)n[nH]c3c2)cc(N2C[C@@H](C(=O)NC3CCCCC3)CC[C@H]2C)n1
8. COc1cc2ncn(-c3cc(OCc4ccccc4S(C)(=O)=O)c(C#N)s3)c2cc1OC

1: 86%; 2: 134%; 3: 71%; 4: 81%; 5: 98%; 6: 59%; 7: 103%; 8: 62%

# return residual activity for each item in the list
1. O=S(=O)(c1ccc(F)c2nonc12)N1CCN(c2ncc(C(F)(F)F)cc2Cl)CC1
2. N#Cc1c(C2CCNCC2)cc(-c2c(O)cccc2OCC2CC2)nc1N
3. CC(C)C[C@H](NC(=O)CNC(=O)c1cc(Cl)ccc1Cl)B1OC(=O)CC(CC(=O)O)(C(=O)O)O1 (stereo partly drawn)
4. Cc1ccc(=O)n(-c2ccccc2)c1
5. NC(=O)c1cc2c(-c3cccc(-c4ccccc4)c3)cnc(N)c2s1

97%
65%
124%
95%
23%
